- procedureSummary: Quantitative highthroughput screen to assess conditional lethalithy of P12 Ichikawa cells grown in Human Plasma-Like Medium with dialyzed fetal bovine serum (HPLM+ds) (AID 1963879); also: nearly all actives have a fitted effect of over 35% in size
- conditionContext: ATP luminescence, 48 h; viability; series mostly up to 45.8 µM
Inconclusive results are not listed. The source made the active and inactive calls. Calls follow the shape of the dose curve; as a rule, active = well fitted cell-killing curve with a large enough effect; inconclusive = small, poorly fitted or top-dose-only effect; inactive = flat fitted curve, though single readings scatter.
A correct response names exactly one class from active, inactive

Worked cases, answers included:
compound	group
CC(C)(C)C(=O)Oc1ccc2c(c1)nc(NC(=O)c1cccc([N+](=O)[O-])c1)n2CCCO	inactive
CCCCN(CCCC)C(=O)CN1C[C@H](c2ccc3c(c2)OCO3)[C@@H](C(=O)O)[C@@H]1c1ccc(OC)cc1	inactive
O=C1CCC(N2C(=O)c3ccccc3C2=O)C(=O)N1 (centres undefined)	inactive
CNC1CCC(N(Cc2cccc(-c3ccncc3)c2)C(=O)c2sc3ccccc3c2Cl)CC1 (centres undefined)	active
Oc1ccc2ccccc2c1SSc1c(O)ccc2ccccc12	inactive

QUERY: Hi team, can someone confirm the assay call for N[C@@H](CC(=O)N1CCn2c(nnc2C(F)(F)F)C1)Cc1cc(F)c(F)cc1F ?
RESULT: inactive

QUERY: Hi team, can someone confirm the assay call for C[C@H](NC(=O)Cc1cc(F)cc(F)c1)C(=O)N[C@@H]1C(=O)N(C)c2ccccc2-c2ccccc21 ?
RESULT: active

QUERY: Hi team, can someone confirm the assay call for COc1cccc(-c2ccc(NC(=O)C3=C(C(=O)O)CCC3)c(F)c2)c1 ?
RESULT: active

QUERY: Hi team, can someone confirm the assay call for Cc1ccccc1N1C(=O)c2cc(S(N)(=O)=O)c(Cl)cc2NC1C (centres undefined) ?
RESULT: inactive

QUERY: Hi team, can someone confirm the assay call for COc1cc(OC)c(NC(=O)Nc2cc(C)on2)cc1Cl ?
RESULT: inactive

QUERY: Hi team, can someone confirm the assay call for COc1ncnc(NS(=O)(=O)c2ccc(N)cc2)c1OC ?
RESULT: active

QUERY: Hi team, can someone confirm the assay call for Cn1cc(C=C2C(=O)Nc3cccnc32)c2ccccc21 ?
RESULT: active

QUERY: Hi team, can someone confirm the assay call for CC1=C(CC(=O)O)c2cc(F)ccc2C1=Cc1ccc(S(C)=O)cc1 (centres undefined) ?
RESULT: inactive

QUERY: Hi team, can someone confirm the assay call for C[C@@]1(c2cc(-c3cncnc3)c(F)cc2F)CCSC(N)=N1 ?
RESULT: active

QUERY: Hi team, can someone confirm the assay call for COc1ccc(C=Cc2cc(OC)c(OC)c(OC)c2)cc1O ?
RESULT: inactive

QUERY: Hi team, can someone confirm the assay call for CC(C)N(CC[C@H](c1ccccc1)c1cc(CO)ccc1O)C(C)C ?
RESULT: inactive

QUERY: Hi team, can someone confirm the assay call for C[C@@H](c1ncncc1F)[C@](O)(Cn1cncn1)c1ccc(F)cc1F ?
RESULT: inactive

QUERY: Hi team, can someone confirm the assay call for Nc1ccc(S(=O)(=O)Nc2ccnn2-c2ccccc2)cc1 ?
RESULT: inactive

QUERY: Hi team, can someone confirm the assay call for Cc1ccnc2c1NC(=O)c1cccnc1N2C1CC1 ?
RESULT: inactive

QUERY: Hi team, can someone confirm the assay call for CC(=O)NC[C@H]1CN(c2ccc(N3CCOCC3)c(F)c2)C(=O)O1 ?
RESULT: inactive

QUERY: Hi team, can someone confirm the assay call for CCOC(=O)C1=C[C@@H](OC(CC)CC)[C@H](NC(C)=O)[C@@H](N)C1 ?
RESULT: inactive
